# Tested on: Serratia marcescens expressing IMP-1 (CL5741)
# Type: cell-based
# Applied Conditions: with imipenem 1 μg/ml; 95% inhibition of bacterial growth

[
  {
    "Compound": "NCCC1CCN(c2ccc(S(=O)(=O)N[C@@H](CN)CO)c(S(N)(=O)=O)c2-c2nn[nH]n2)CC1",
    "CL5741 S. marcescens MITC95 IMP, µM": 0.78
  },
  {
    "Compound": "NS(=O)(=O)c1c(S(=O)(=O)N[C@@H]2CCNC2)ccc(N2CC(N3CCCCC3)C2)c1-c1nnn[nH]1",
    "CL5741 S. marcescens MITC95 IMP, µM": 1.56
  },
  {
    "Compound": "NS(=O)(=O)c1c(S(=O)(=O)N[C@@H]2CCNC2)ccc(N2CCC(S(N)(=O)=O)CC2)c1-c1nnn[nH]1",
    "CL5741 S. marcescens MITC95 IMP, µM": 0.78
  },
  {
    "Compound": "NS(=O)(=O)c1c(S(=O)(=O)N[C@@H]2CCNC2)ccc(N2CCCC(=NO)C2=O)c1-c1nn[nH]n1",
    "CL5741 S. marcescens MITC95 IMP, µM": 1.56
  },
  {
    "Compound": "NC[C@@H](O)CNS(=O)(=O)c1ccc(N2CCC(CNCCO)CC2)c(-c2nn[nH]n2)c1S(N)(=O)=O",
    "CL5741 S. marcescens MITC95 IMP, µM": 0.39
  },
  {
    "Compound": "NC[C@@H](O)CNS(=O)(=O)c1ccc(N2CC[C@H](CN)C2)c(-c2nn[nH]n2)c1S(N)(=O)=O",
    "CL5741 S. marcescens MITC95 IMP, µM": 0.78
  },
  {
    "Compound": "NS(=O)(=O)c1c(S(=O)(=O)N[C@@H]2CCNC2)ccc(NCCN2CCOCC2)c1-c1nnn[nH]1",
    "CL5741 S. marcescens MITC95 IMP, µM": 1.56
  },
  {
    "Compound": "NS(=O)(=O)c1c(S(=O)(=O)N[C@@H]2CCNC2)ccc(N2CCC(Cc3ccccn3)CC2)c1-c1nnn[nH]1",
    "CL5741 S. marcescens MITC95 IMP, µM": 3.13
  },
  {
    "Compound": "NS(=O)(=O)c1c(S(=O)(=O)N[C@@H]2CCNC2)ccc(N2CCC(O)CC2=O)c1-c1nn[nH]n1 (some centres unmarked)",
    "CL5741 S. marcescens MITC95 IMP, µM": 0.78
  },
  {
    "Compound": "NC[C@@H](O)CNS(=O)(=O)c1ccc(N[C@H]2C[C@H](N)C2)c(-c2nnn[nH]2)c1S(N)(=O)=O",
    "CL5741 S. marcescens MITC95 IMP, µM": 3.13
  },
  {
    "Compound": "NS(=O)(=O)c1c(S(=O)(=O)N[C@@H]2CCNC2)ccc(N2CCNC(CO)CC2)c1-c1nn[nH]n1 (some centres unmarked)",
    "CL5741 S. marcescens MITC95 IMP, µM": 0.78
  },
  {
    "Compound": "NC[C@@H](O)CNS(=O)(=O)c1ccc(N2CCC(c3c[nH]cn3)CC2)c(-c2nnn[nH]2)c1S(N)(=O)=O",
    "CL5741 S. marcescens MITC95 IMP, µM": 1.17
  },
  {
    "Compound": "COC1(CO)CCN(c2ccc(S(=O)(=O)N[C@H](C)CN)c(S(N)(=O)=O)c2-c2nn[nH]n2)CC1",
    "CL5741 S. marcescens MITC95 IMP, µM": 3.13
  },
  {
    "Compound": "NCC1CCN(c2ccc(S(=O)(=O)N[C@@H]3CCNC3)c(S(N)(=O)=O)c2-c2nn[nH]n2)C(=O)C1 (some centres unmarked)",
    "CL5741 S. marcescens MITC95 IMP, µM": 1.56
  }
]
